Measured Growth Rate of individual entries
- System: HEK-293T
- ASSAY_EXPLANATION: Incucyte cell viability with HEK293T; also: unitless GR value; below 1 slowed growth and below 0 cell loss
- Type: toxicity, cell-based
- CONDITION_LABEL: human, 24 h, 10 µM, compound concentration 10 uM, replicate number 2
Peptide text beside a SMILES is read from it.
MEASURE: Growth Rate

In [3]: df
Out[3]:
                                    compound      measure  numeric_value
 0  COc1cc(C)[nH]c(=O)c1CNC(=O)c1c(C)n([C@H](C)C2CCN(CC(F)(F)F)CC2)c2ccccc12  Growth Rate           0.95
 1        O=C(NCC(=O)N1CCCCC1)Nc1ccc2nnsc2c1  Growth Rate           0.97
 2  CC(=O)N[C@@H](CC(=O)O)C(=O)N[C@@H](CCC(=O)O)C(=O)N[C@H](C(=O)N[C@H](C=O)CC(=O)O)C(C)C.O=C(O)C(F)(F)F  Growth Rate              1
 3  CCC[C@@H]1CNCc2c1[nH]c(=O)c(C#N)c2N1CCC2(CC1)CC2.Cl  Growth Rate           0.97
 4  CNC(=O)Cn1cc(-c2ccc3c(c2)[C@H](F)C[C@]32NC(=O)N(CC(=O)N(Cc3ccc(F)cc3)[C@@H](C)C(F)(F)F)C2=O)cn1  Growth Rate           0.24
 5  CC(=O)O[C@]1(C(C)=O)CC[C@H]2[C@@H]3CCC4=CC(=O)CCC4=C3[C@@H](c3ccc(N(C)C)cc3)C[C@@]21C [ULIPRISTAL ACETATE]  Growth Rate           0.96
 6  CC(C)(C)c1ccc(CN(C(=O)CN(Cc2c(F)c(F)c(F)c(F)c2F)S(=O)(=O)c2ccc(F)cc2)c2ccc(C(=O)NO)cc2)cc1  Growth Rate           0.53
 7  C[C@H](CN[C@@H](C(=O)Nc1ccc(-c2cnn(C)c2)cn1)c1ccccc1)c1ccc(C#N)cc1  Growth Rate            0.3
 8  COc1cc(O)c2c(c1)/C=C\C[C@H](O)[C@H](O)C(=O)/C=C\C[C@H](C)OC2=O  Growth Rate          -0.25
 9  CC(C)(O)c1ccc(-c2nc3c(F)cc(F)cc3c(=O)[nH]2)cc1  Growth Rate              1
10  CC(=O)N[C@@H](CC(C)C)C(=O)N[C@@H](CCC(=O)O)C(=O)N[C@H](C(=O)N[C@H](C=O)CC(=O)O)C(C)C (Ac-LEVD-aldehyde)  Growth Rate           0.82
11          Nc1c[nH]c(=O)c2cc(-c3ccccc3)sc12  Growth Rate           0.73
12  CCCC(NC(=O)C(CC(C)C)NC(=O)OCc1ccccc1)C(=O)C(=O)NCc1ccccn1 (racemic)  Growth Rate              1
13  CC(C)(C)OC(=O)Nc1ccc(CNc2nccc(Nc3cc(C(=O)OC(C)(C)C)[nH]n3)n2)cc1  Growth Rate          -0.24
14  Cc1nc(-c2cnc(NC(C)C)n(C)c2=O)ccc1Oc1ccnc(-c2cnn(C)c2)c1  Growth Rate           0.02

Provenance of the data: ChEMBL document CHEMBL5724709
